ASSAY PROCEDURE: Worst-case calculation (100% migration), standard EU Cube exposure model
CONDITION DESCRIPTION: substance in ink SBDEV980 (Ex. 4B Red); 100% migration, dry coat weight 2.0 g/m^2
Where a name gives a salt, the structure may show the parent alone.
Property: Worst Case Calculation of migration in EU Cube model (as a percentage of SML); scope: individual compounds

- COMPOUND: "O=Cc1ccc(Cl)cc1 [0000104-88-1, 4-Chlorobenzaldehyde]"
  VALUE OBSERVED: "14 percentage of SML"

Ask: Can you look up the measured Worst Case Calculation of migration in EU Cube model (as a percentage of SML) of O=C1NCCN1 [0000120-93-4, 2-Imidazolidinone] for me?
Reply: 16 percentage of SML

Ask: Can you look up the measured Worst Case Calculation of migration in EU Cube model (as a percentage of SML) of O=C(O)c1ccc(-c2ccccc2)cc1 [0000092-92-2, 4-Phenylbenzoic Acid] for me?
Reply: 7 percentage of SML

Ask: Can you look up the measured Worst Case Calculation of migration in EU Cube model (as a percentage of SML) of CCCCOC(=O)CC(O)(CC(=O)OCCCC)C(=O)OCCCC [0000077-94-1, Tributyl citrate] for me?
Reply: 53.4 percentage of SML

Ask: Can you look up the measured Worst Case Calculation of migration in EU Cube model (as a percentage of SML) of O=C(O)c1c(-c2ccc(-c3ccccc3)cc2)[nH]c2nc(-c3ccc(-c4ccccc4)cc3)nc(-c3ccc(-c4ccccc4)cc3)c12 for me?
Reply: 380 percentage of SML

Ask: Can you look up the measured Worst Case Calculation of migration in EU Cube model (as a percentage of SML) of c1ccc(-c2ccc(-c3nc(-c4ccc(-c5ccccc5)cc4)nc(-c4ccc(-c5ccccc5)cc4)n3)cc2)cc1 [0031274-51-8] for me?
Reply: 0.3 percentage of SML

Ask: Can you look up the measured Worst Case Calculation of migration in EU Cube model (as a percentage of SML) of N#Cc1ccc(-c2ccccc2)cc1 [0002920-38-9, 4-Phenylbenzonitrile] for me?
Reply: 5 percentage of SML

Ask: Can you look up the measured Worst Case Calculation of migration in EU Cube model (as a percentage of SML) of CCCCCCCC/C=C\CCCCCCCC(=O)OCC [0000111-62-6, Ethyl Oleate] for me?
Reply: 24.0 percentage of SML

Ask: Can you look up the measured Worst Case Calculation of migration in EU Cube model (as a percentage of SML) of CCCC1OC(CCC)OC(CCC)O1 (stereo not shown) [0002396-43-2, 2,4,6-tripropyl-1,3,5-Trioxane] for me?
Reply: 66 percentage of SML

Ask: Can you look up the measured Worst Case Calculation of migration in EU Cube model (as a percentage of SML) of NC(=O)c1ccc(-c2ccccc2)cc1 [0003815-20-1, 4-Phenylbenzamide] for me?
Reply: 230 percentage of SML

====

Property: Worst-case calculation as a percentage of SML (or restriction), Application 2; scope: individual molecules
ASSAY PROCEDURE: Worst-case calculation, Application 2 cheese packaging wrap exposure scenario
CONDITION DESCRIPTION: product SBDEV1286; 100% migration; 2.0 g/m^2 dry film
Structures can show the parent of a compound that is named as a salt.

- MOLECULE: "CCCC1OC(CCC)OC(CCC)O1 (centres unmarked)"
  VALUE OBSERVED: "87.8 percentage of SML (or restriction)"
- MOLECULE: "CCCCCCCC/C=C\\CCCCCCCC(=O)OCC [0000111-62-6, Ethyl Oleate]"
  VALUE OBSERVED: "32.68 percentage of SML (or restriction)"
- MOLECULE: "O=C1NCCN1"
  VALUE OBSERVED: "17.3 percentage of SML (or restriction)"
- MOLECULE: "CCCCOC(=O)CC(O)(CC(=O)OCCCC)C(=O)OCCCC [0000077-94-1, Tributyl citrate]"
  VALUE OBSERVED: "76.01 percentage of SML (or restriction)"

From here, focus on the item given below.
Ask: Can you look up the measured Worst-case calculation as a percentage of SML (or restriction), Application 2 of c1ccc2ccccc2c1 for me?
Reply: 0.6 percentage of SML (or restriction)

====

Property: Worst-case calculation as a percentage of SML (or restriction), Application 2; scope: individual compounds
ASSAY PROCEDURE: Worst-case calculation, Application 2 cheese packaging wrap exposure scenario
CONDITION DESCRIPTION: product SBDEV1285; 100% migration; 2.0 g/m^2 dry film

Reference set, count: 3
- COMPOUND: "O=Cc1ccc(Cl)cc1"
  VALUE OBSERVED: "20.2 percentage of SML (or restriction)"
- COMPOUND: "O=C(O)c1ccc(-c2ccccc2)cc1"
  VALUE OBSERVED: "10.1 percentage of SML (or restriction)"
- COMPOUND: "CCCC1OC(CCC)OC(CCC)O1 (centres unmarked)"
  VALUE OBSERVED: "96.5 percentage of SML (or restriction)"

Ask: Can you look up the measured Worst-case calculation as a percentage of SML (or restriction), Application 2 of N#Cc1ccc(-c2ccccc2)cc1 for me?
Reply: 7.2 percentage of SML (or restriction)

Ask: Can you look up the measured Worst-case calculation as a percentage of SML (or restriction), Application 2 of NC(=O)c1ccc(-c2ccccc2)cc1 [0003815-20-1, 4-Phenylbenzamide] for me?
Reply: 331.2 percentage of SML (or restriction)

====

Property: Worst Case Calculation of migration in EU Cube model (as a percentage of SML); scope: individual molecules
ASSAY PROCEDURE: Worst-case calculation (100% migration), standard EU Cube exposure model
CONDITION DESCRIPTION: substance in ink SBDEV976 (Ex. 4C Cyan); 100% migration, dry coat weight 2.0 g/m^2
Where a name gives a salt, the structure may show the parent alone.

Reference set, count: 3
- MOLECULE: "c1ccc2ccccc2c1"
  VALUE OBSERVED: "0.4 percentage of SML"
- MOLECULE: "CCCCOC(=O)CC(O)(CC(=O)OCCCC)C(=O)OCCCC [0000077-94-1, Tributyl citrate]"
  VALUE OBSERVED: "55.2 percentage of SML"
- MOLECULE: "CCCCCCCC/C=C\\CCCCCCCC(=O)OCC [0000111-62-6, Ethyl Oleate]"
  VALUE OBSERVED: "24.0 percentage of SML"

Ask: Can you look up the measured Worst Case Calculation of migration in EU Cube model (as a percentage of SML) of CCCC1OC(CCC)OC(CCC)O1 (centres unmarked) for me?
Reply: 61 percentage of SML

Ask: Can you look up the measured Worst Case Calculation of migration in EU Cube model (as a percentage of SML) of O=C1NCCN1 for me?
Reply: 16 percentage of SML

====

ASSAY PROCEDURE: Worst-case calculation (100% migration), standard EU Cube exposure model
CONDITION DESCRIPTION: product SBDEV1286; 100% migration; 2.0 g/m^2 dry film
Counter-ions that a name gives are not always drawn.
RECORDED METRIC: Worst-case calculation as a percentage of SML (or restriction), EU Cube

- COMPOUND: "O=C1NCCN1"
  VALUE OBSERVED: "12 percentage of SML (or restriction)"
- COMPOUND: "CCCC1OC(CCC)OC(CCC)O1 (centres unmarked)"
  VALUE OBSERVED: "61 percentage of SML (or restriction)"
- COMPOUND: "c1ccc2ccccc2c1"
  VALUE OBSERVED: "0.4 percentage of SML (or restriction)"

Ask: Can you look up the measured Worst-case calculation as a percentage of SML (or restriction), EU Cube of CCCCCCCC/C=C\CCCCCCCC(=O)OCC [0000111-62-6, Ethyl Oleate] for me?
Reply: 22.7 percentage of SML (or restriction)

Ask: Can you look up the measured Worst-case calculation as a percentage of SML (or restriction), EU Cube of CCCCOC(=O)CC(O)(CC(=O)OCCCC)C(=O)OCCCC [0000077-94-1, Tributyl citrate] for me?
Reply: 52.8 percentage of SML (or restriction)

====

Property: Worst-case calculation as a percentage of SML (or restriction), EU Cube; scope: individual compounds
ASSAY PROCEDURE: Worst-case calculation (100% migration), standard EU Cube exposure model
CONDITION DESCRIPTION: product SBDEV1284; 100% migration; 2.0 g/m^2 dry film
Counter-ions that a name gives are not always drawn.

- COMPOUND: "CCCCOC(=O)CC(O)(CC(=O)OCCCC)C(=O)OCCCC [0000077-94-1, Tributyl citrate]"
  VALUE OBSERVED: "52.8 percentage of SML (or restriction)"
- COMPOUND: "O=C1NCCN1 [0000120-93-4, 2-Imidazolidinone]"
  VALUE OBSERVED: "11 percentage of SML (or restriction)"
- COMPOUND: "CCCC1OC(CCC)OC(CCC)O1 (stereo not shown) [0002396-43-2, 2,4,6-tripropyl-1,3,5-Trioxane]"
  VALUE OBSERVED: "66 percentage of SML (or restriction)"

From here, focus on the item given below.
Ask: Can you look up the measured Worst-case calculation as a percentage of SML (or restriction), EU Cube of CCCCCCCC/C=C\CCCCCCCC(=O)OCC [0000111-62-6, Ethyl Oleate] for me?
Reply: 22.7 percentage of SML (or restriction)

# credit: patent US11927585B2
